All values here come from PubChem BioAssay AID1159580.

Test Description: chemical genetic growth profiling, strain panel (AID 1159580);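 note: tested at 20 µM; growth read once vehicle control cultures reached saturation at 30 °C; 1 = growth at the plate median or of vehicle wells; lower values mean less growth of the strain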
Experimental Parameters: S. cerevisiae deletion strains, growth OD, locus YDL035C, strain GPR1, hits give low values
Screen size: about 5,500 compounds; about 2,000 (36%) were called active. Another 18% or so got no clear call; they are omitted. Some of the results follow.
Here the recorded normalized growth is given for each entry.
Reply briefly: the number, and no unit.

Cc1cc(O)cc(=O)o1	1.02
Cc1cc(O)cc(O)c1C(=O)O	1.04
CC(=O)Nc1ccc(OCC(O)CNC(C)C)cc1 (configuration not stated)	1.01
Fc1ccc(C(c2ccccc2)(c2ccccc2F)n2ccnc2)cc1 (configuration not stated)	0.0631
Cc1ccc(S(=O)(=O)NC(=O)NN2CC3CCCC3C2)cc1 (configuration not stated)	0.946

Reported normalized growth of COC(=O)C[C@H]1C(C)(C)C(=O)[C@@H]2CC3C4=CC(=O)O[C@@H](c5ccoc5)[C@]4(C)CCC3[C@@]1(C)C2=O (some centres not stated) : 0.959

Reported normalized growth of `CCCOc1ccccc1-c1nc2n[nH]nc2c(=O)[nH]1` : 1.02

Reported normalized growth of C#C[C@]1(O)CCC2C3CCC4=CC(=O)CC[C@@H]4C3CC[C@@]21CC (some centres not stated) : 0.979

Reported normalized growth of `NCCC(=O)N[C@@H](Cc1cnc[nH]1)C(=O)O` : 0.997

Reported normalized growth of CCOC(=O)OC(C)OC(=O)C1N2C(=O)C(NC(=O)[C@H](N)c3ccccc3)C2SC1(C)C (some centres not stated) : 0.984

Reported normalized growth of `Nc1ccc(S(=O)(=O)c2ccc(N)cc2)cc1` : 1.03

Reported normalized growth of `COc1cc(N)c(Cl)cc1C(=O)NC1CCN(Cc2ccccc2)CC1` : 1

----------
Test Description: chemical genetic growth profiling, strain panel (AID 1159580);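 note: tested at 20 µM; growth read once vehicle control cultures reached saturation at 30 °C; 1 = growth at the plate median or of vehicle wells; lower values mean less growth of the strain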
Experimental Parameters: S. cerevisiae deletion strains, growth OD, locus YIR030C, strain dcg1, hits give low values
Hit rate of the full screen: of about 5,500 compounds, about 2,000 (36%) were called active. Another 18% or so got no clear call; they are omitted. This is one part of the list.
Endpoint Name: normalized growth

Illustrative cases are given below, each with its answer.
C#C[C@]1(OC(C)=O)CCC2C3CCC4=CC(=O)CC[C@@H]4C3CC[C@@]21C (stereo not given in full)	0.961 (inactive)
CC(C)(Oc1ccc(CCNC(=O)c2ccc(Cl)cc2)cc1)C(=O)O	1.02 (inactive)
COC(=O)Nc1nc2ccc(Sc3ccccc3)cc2[nH]1	1 (inactive)
C[C@@H]1CC[C@H]2[C@@H](C)C(=O)O[C@@H]3O[C@@]4(C)CC[C@@H]1[C@]32OO4	0.918 (active)

Then there is this molecule:
Reported normalized growth of C#C[C@]1(O)CCC2C3CCC4=CC(=O)CC[C@@H]4C3CC[C@@]21CC (stereo not given in full) : 0.982 (inactive)

----------
Test Description: chemical genetic growth profiling, strain panel (AID 1159580);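 note: tested at 20 µM; growth read once vehicle control cultures reached saturation at 30 °C; 1 = growth at the plate median or of vehicle wells; lower values mean less growth of the strain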
Experimental Parameters: S. cerevisiae deletion strains, growth OD, locus YGL078C, strain dbp3
The campaign covered roughly 5,500 compounds. About 2,000 (36%) were called active. Another 18% or so got no clear call; they are omitted. Rule as the data show it: active = normalized growth mostly below about 0.91 (no sharp cut-off); inconclusive = no clear call, values can overlap the other calls; inactive = mostly above about 0.92. The list shows a part of the results.
# valid calls are active, inactive; nothing else

C[C@@H]1CC[C@H]2[C@@H](C)C(O)O[C@@H]3O[C@@]4(C)CC[C@@H]1[C@]32OO4 (some centres not stated)	active
CC1(C)CC[C@]2(C(=O)O)CC[C@]3(C)C(=CCC4[C@@]5(C)CC[C@@H](O)C(C)(C)C5CC[C@]43C)C2C1 (some centres not stated)	inactive
CNC(=O)O/N=C\C(C)(C)SC	inactive
Cc1cc(O)cc(=O)o1	inactive
Cc1cc(O)ccc1Cl	inactive

Q. What call does the record list for COC(=O)C[C@H]1C(C)(C)C(=O)[C@@H]2CC3C4=CC(=O)O[C@@H](c5ccoc5)[C@]4(C)CCC3[C@@]1(C)C2=O (some centres not stated) ?
A. inactive

Q. What call does the record list for CNC(=O)Oc1ccc2c(c1)C1(C)CCN(C)C1N2C (configuration not stated) ?
A. inactive
